test system: HCT-15 colon; assay: NCI-60 one-dose screen, 48 h (100 = growth as untreated, 0 = no growth, -100 = all killed); conditions: 10 µM unless noted
Compounds without any hit were thinned out: in the full panel of roughly 83,000, 20% have a hit.

compound: COC[C@@]1(C)CC[C@]2(C)CC[C@]3(C)C(=CC[C@@H]4[C@@]5(C)CCCNC(C)(C)[C@@H]5CC[C@]43C)C2C1 (stereo partly specified)
unit descriptor: %
growth: 16.1

compound: N/C(=N\c1nc2c(Cl)cccc2s1)C(Cl)(Cl)Cl
unit descriptor: %
growth: 81.3

compound: Cc1nn(-c2ccc(Cl)cc2)c(C)c1N=Nc1ccc2oc(=O)ccc2c1
unit descriptor: %
growth: 81.4

compound: Clc1ccc(-c2csc(Nc3cccc(Nc4csc(-c5ccc(Cl)cc5)n4)c3)n2)cc1
unit descriptor: %
growth: 56.5

compound: Oc1ccc(CSc2nnc(-c3ccncc3)n2-c2ccccc2)c2cccnc12
unit descriptor: %
growth: 15.1

compound: Cc1cc2nc(C(Cl)Cl)nc(-c3ccco3)n2n1
unit descriptor: %
growth: 72

compound: COCCOc1ccc(-c2csc(NC(C)=O)n2)cc1NS(=O)(=O)c1cccc2c(N(C)C)cccc12
unit descriptor: %
growth: 94.5

compound: CCN1C(=O)N(CC)C2SC(N/N=C/c3ccc(F)cc3)=NC21 (stereo unspecified)
unit descriptor: %
growth: 14.9

compound: Oc1ccc(CSc2nnc(-c3ccccc3)n2-c2ccccc2)c2cccnc12
unit descriptor: %
growth: 13.6

compound: Cc1cnc2nc(NN)[nH]n12
unit descriptor: %
growth: 101

compound: CCOC(=O)c1nn(-c2ccccc2)c(=O)c2c(N)c(C#N)c(-c3cccs3)cc12
unit descriptor: %
growth: 87.6

compound: Cc1nn(-c2ccccc2)c2nc(CCl)[nH]c(=O)c12
unit descriptor: %
growth: 90.6

compound: Cn1cc(-c2nnc(N)nc2-c2cn(C)c3ccc(F)cc23)c2cc(F)ccc21
unit descriptor: %
growth: 91.8

compound: Cc1ccc(Cc2cnc(NC(=O)/C(C#N)=C/c3ccc(-c4ccc(Cl)cc4)o3)s2)cc1
unit descriptor: %
growth: 93.3

compound: C#Cc1ccc(NC(=O)c2ccc(/C=C/C(=O)c3nccn3C)cc2)c(F)c1
unit descriptor: %
growth: 7.76

compound: Cc1ccc(-c2cc(-c3ccc(N(C)C)cc3)n3c(n2)nc2ccccc23)cc1
unit descriptor: %
growth: 56.6

compound: O=C(/C=C1\C=CN(CCCCF)c2ccccc21)n1ccc2ccccc21
unit descriptor: %
growth: 102

compound: COc1ccc(-c2nc3cc(Cl)c(Cl)cc3n2CC(=O)N=Nc2c(O)[nH]c3ccccc23)cc1
unit descriptor: %
growth: 30.6

compound: CNC(=O)c1cc(Oc2ccc3nc(NC(=O)c4cccc(C(F)(F)F)c4)sc3c2)ccn1
unit descriptor: %
growth: 98.1

compound: COc1cc([C@H]2OC[C@H]3[C@@H]2CO[C@@H]3c2ccc(O)c(OC)c2)ccc1O
unit descriptor: %
growth: 88.4

compound: O=C(O)c1ccc(-n2cc(CNc3ccc(Cl)cc3)c(-c3ccc(F)cc3)n2)cc1
unit descriptor: %
growth: 79.6

compound: O=C(CN1CCN(c2cc(=O)n(-c3ccccc3)c3ccccc23)CC1)Nc1ccc([N+](=O)[O-])cc1
unit descriptor: %
growth: 95.1

compound: Nc1nc(N)c2c(n1)NC(c1ccc(Cl)cc1)CC(c1ccc(Nc3nc(NCCO)nc(Nc4ccc(Cl)cc4)n3)cc1)=N2 (stereo unspecified)
unit descriptor: %
growth: 1.91

compound: Oc1ccc(CSc2nnc(-c3cnccn3)n2-c2ccccc2)c2cccnc12
unit descriptor: %
growth: 19.3

compound: CC1OC(O[C@@H]2C(O)C(CO)OC(O[C@H]3COC(O[C@H]4CC[C@]5(C)[C@H]6CC[C@]78OC[C@@]9(CC[C@](C)(C=O)C[C@H]97)[C@H](O)C[C@@]8(C)[C@]6(C)CC[C@H]5C4(C)C)[C@@H](OC4OC(CO)[C@@H](O)[C@@H](O)[C@@H]4O)[C@@H]3O)[C@H]2OC2OC[C@@H](O)[C@@H](O)[C@@H]2O)[C@@H](O)[C@@H](O)[C@H]1O (stereo partly specified)
unit descriptor: %
growth: 83.7

compound: C=C1C(=O)O[C@@H]2C[C@@H](C)CCC(=O)[C@](C)(OC(C)=O)C[C@H](OC(=O)/C(C)=C\C)[C@@H]12
unit descriptor: %
growth: 60.9
